B1: TRAF3IP2 (parent)
chain: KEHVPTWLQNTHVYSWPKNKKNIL

Variants of: B1
Experiment: protein stability index of a GFP-peptide fusion (GPS, HEK-293T) (PSI 1-6); higher = more stable;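 also: lentivirally expressed fusions sorted by FACS into six bins by GFP to DsRed ratio, PSI derived from sequencing read proportions per bin multiplied by bin number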
Conditions: c terminus: a fixed tail appended

Variant Spec: Y14K
protein stability index: 2.49

Variant Spec: N19V
protein stability index: 2.34

Variant Spec: I23N
protein stability index: 3.19

Variant Spec: K18M
protein stability index: 2.42

Variant Spec: N22Q
protein stability index: 2.72

Variant Spec: Q9A
protein stability index: 2.18

Variant Spec: E2M
protein stability index: 2.5

Variant Spec: K1F
protein stability index: 1.69

Variant Spec: W7C
protein stability index: 3.75

Variant Spec: T6F
protein stability index: 1.93

Variant Spec: N22S
protein stability index: 1.97

Variant Spec: V13K
protein stability index: 3.2

Variant Spec: W7M
protein stability index: 3.61

Variant Spec: V4N
protein stability index: 3.44

Variant Spec: K21N
protein stability index: 1.93

Variant Spec: V4H
protein stability index: 2.25

Variant Spec: S15F
protein stability index: 1.97

Variant Spec: I23F
protein stability index: 2.69

Variant Spec: T6S
protein stability index: 2.88

Variant Spec: L8R
protein stability index: 2.98

Variant Spec: P17L
protein stability index: 1.85

Variant Spec: K20C
protein stability index: 1.89
